System: EKVX NSCLC
Assay: NCI-60 one-dose screen, 48 h (100 = growth as untreated, 0 = no growth, -100 = all killed)
Details: 10 µM unless noted
Protocol: Growth inhibition of the EKVX human Non-Small Cell Lung tumor cell line is measured as a screen for anti-cancer activity. Cells are grown in 96 well plates and exposed to the test compound for 48 hours. Compounds are tested at a single concentration, which is 10^-5 M for most compounds. The reported endpoint is percent growth (GI% or GIPRCNT), where numbers from 0 - 100% represent growth inhibition, and numbers from -100% - 0 represent cell death. […]
Compounds without any hit were thinned out: in the full panel of roughly 83,000, 20% have a hit.
Binary label based on growth with cut-off 60%: below gives 1, not below gives 0.

is_below(growth, 60%) for `COc1ccc(/C=C(/C)c2ccc3ccc(OC)cc3[o+]2)c(O)c1` ?
1

Check `CN1CCC(n2cc(Nc3ncc4c(=O)n(-c5c(Cl)cccc5Cl)cc(Br)c4n3)cn2)CC1` too.
1

Check `CC(=O)c1nnn(-c2c(C(=O)n3nc(C)cc3C)sc(=S)n2-c2ccccc2)c1C` too.
0

Check `Brc1ccccc1/C=N/Nc1nc(N/N=C/c2ccccc2Br)nc(N2CCOCC2)n1` too.
0

Check `O=C1/C(=C/C=C/c2ccco2)SC(=S)N1C1CCCCC1` too.
0

Check `Cc1ccc(C2=Nn3c(nnc3-c3ccccc3)SC2)cc1` too.
1

Check `Cc1cc(S(=O)(=O)N(C)C)cc(NCC(=O)NC(=O)NCC(C)C)c1C` too.
0

Check `Cc1ccc(NC(=O)CNc2cc(C(N)=O)cc(F)c2C)c(Cl)c1` too.
1

Check `CCCSc1nc(Nc2ccc(/C(C)=N\NC(N)=S)cc2)c(C#N)c(-c2ccccc2)n1` too.
0

Check `COc1ccc(-c2nc3cc(Cl)c(Cl)cc3n2CC(=O)N=Nc2c(O)[nH]c3ccc(OC)cc23)cc1` too.
0

###

system: SK-MEL-5 melanoma; assay: NCI-60 one-dose screen, 48 h (100 = growth as untreated, 0 = no growth, -100 = all killed); details: 10 µM unless noted
About 83,000 compounds went through this panel and 20% of them were active in at least one assay; those are over-represented in the sample as a whole.
I'd be grateful if you could share measured growth for these entries.
Entry rule: numbers only, all in %.

Notebook entry, SK-MEL-5 melanoma assay: growth of CC(=O)N1C(=S)NC(=O)C1CC(C)C (stereo not given) = ?
106

Check `Cc1cc(S(=O)(=O)N(C)C)cc(NCC(=O)NC(=O)NCC(C)C)c1C` too.
96.5

Check `Cc1ccc(-c2cc3nc(C(Cl)Cl)nc(C)n3n2)cc1` too.
98.2

Check `COc1ccccc1C(=O)Nc1cccc2c1C(=O)C(=O)C=C2` too.
93.2

Check `N#C/C(=C\c1ccc(-c2ccc(Cl)cc2Cl)o1)c1ccc(F)cc1` too.
95.7

Check `NC(=O)c1c(NC(=O)c2ccc(F)cc2F)sc2c1CCC(=O)C2` too.
64.6

Check `CCCCCc1ccc(S(=O)(=O)Nc2cc(-c3csc(NC(=O)CN4CCN(C)CC4)n3)ccc2N2CCN(C)CC2)cc1` too.
-89.9

Check `COc1cc(-c2nn(C(C)(C)C)cc2-c2ccnc(NCCCNS(=O)(=O)c3cccc(F)c3)n2)ccc1Cl` too.
81.8

Check CC(C)(C)c1ccc(C(=O)Nc2sc3c(c2C(N)=O)CCC(O)C3)cc1 (stereo not given) too.
38.5

Check `C#C[C@]1(O)CC[C@H]2[C@@H]3CC=C4c5sc(-c6ccc7c(c6)OCO7)nc5CC[C@]4(C)[C@H]3CC[C@@]21C` too.
50.5
